Values were extracted from PubChem BioAssay AID2685.

experiment: qHTS Assay for Lipid Storage Modulators in Drosophila S3 Cells;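 as to cell number change: cells counted by Cell Tracker Red CMTPX staining in the red channel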
measurement-context: BODIPY lipid droplet fluorescence, 18-24 h, cells fed with added oleic acid; measured here: cell count max response
Hit rate of the full screen: of about 320,000 compounds, about 2,100 (0.66%) were called active. Another 53% or so got no clear call; they are omitted. Many of the other results were omitted from the sample, so actives are more common in it than they were.
test-readout: cell number change (%)
Write the value in % as a bare number.

Query: Given the compound Cc1ccc(C(=O)N2CCC(Cc3ccccc3)CC2)cc1[N+](=O)[O-] , what is its reported cell number change?
Result: 4.11

Query: Given the compound S=C1NCN(C2CCCCC2)CN1Cc1ccccc1 , what is its reported cell number change?
Result: 2.76

Query: Given the compound O=C1CCN(Cc2ccccc2)CCN1CCO , what is its reported cell number change?
Result: 13.2

Query: Given the compound Cc1c(C(=O)N/N=C/C(C)C)[nH]c2ccc([N+](=O)[O-])cc12 , what is its reported cell number change?
Result: -4.9

Query: Given the compound O=C1NC(c2ccccc2)=C(c2ccc3ccccc3n2)C(c2ccccc2)N1 (stereo unspecified) , what is its reported cell number change?
Result: -0.112

Query: Given the compound Cc1cc(C)nc(SCc2ccc([N+](=O)[O-])cc2)n1 , what is its reported cell number change?
Result: -8.5

Query: Given the compound Cc1cc2c(cc1S(=O)(=O)N1CCN(c3ccccc3)CC1)OCCN2C , what is its reported cell number change?
Result: -3.46

Query: Given the compound Cc1cc(Nc2ccc(Cl)cc2)nc(-c2ccccc2O)n1 , what is its reported cell number change?
Result: 25.5

Query: Given the compound c1ccc(-c2cn3nc(-c4ccccc4)c(-c4ccccc4)nc3n2)cc1 , what is its reported cell number change?
Result: 19.6

Query: Given the compound COc1ccc(N2C(=O)[C@@H]3Cc4ccccc4CN3C2=O)cc1 , what is its reported cell number change?
Result: -10.6

Query: Given the compound CC(=O)NS(=O)(=O)c1ccccc1 , what is its reported cell number change?
Result: -6.94

Query: Given the compound COc1cc(C(=O)N2CCN(C)CC2)cc(OC)c1OC , what is its reported cell number change?
Result: -9.94

Query: Given the compound Cc1ccc(Cc2nc(-c3cccnc3)no2)cc1 , what is its reported cell number change?
Result: -9.21

Query: Given the compound Nc1c(N(CCC2=CCCCC2)C(=O)C2CC2)c(=O)[nH]c(=O)n1Cc1ccccc1 , what is its reported cell number change?
Result: 10.2

Query: Given the compound CCOC(=O)/C(C#N)=C/c1cc2cc(C)c(C)cc2nc1Cl , what is its reported cell number change?
Result: -0.849

Query: Given the compound CCN(CC)c1ccc(/C=C(/C#N)C(=O)NCc2ccccc2)o1 , what is its reported cell number change?
Result: -20.4

Query: Given the compound NC(=NCCc1ccccc1)NS(=O)(=O)c1ccccc1 , what is its reported cell number change?
Result: 16.5

Query: Given the compound COc1ccc(OC)c(NC(=O)C2CCCCC2C(=O)O)c1 (stereo unspecified) , what is its reported cell number change?
Result: 2.85

Query: Given the compound O=C1C2CCCN2C(c2cccs2)N1c1ccc(Cl)cc1 (stereo unspecified) , what is its reported cell number change?
Result: 6.57

Query: Given the compound N#Cc1nc(COc2ccc(Cl)cc2)oc1N1CCCC1 , what is its reported cell number change?
Result: -31

Query: Given the compound Cn1nnnc1SCCNCc1ccccc1OCc1ccccc1 , what is its reported cell number change?
Result: 16.4

Query: Given the compound CCOC(=O)C1CCN(c2nc(-c3ccc(C)cc3)nc3ccccc23)CC1 , what is its reported cell number change?
Result: -12.1

Query: Given the compound NC1=NC(=O)C(CC(=O)c2ccc(Cl)cc2)S1 (stereo unspecified) , what is its reported cell number change?
Result: -1.82

Query: Given the compound CC(=O)NC12CC3CC(C1)CC(C(=O)Nc1nc4ccc(F)cc4s1)(C3)C2 , what is its reported cell number change?
Result: -27.9

Query: Given the compound Cc1cc(C)nc(OC(C(=O)O)C(OCc2ccccc2)(c2ccccc2)c2ccccc2)n1 (stereo unspecified) , what is its reported cell number change?
Result: -6.47

Query: Given the compound CCC(C)(C)n1nnnc1C(c1ccccc1)N1CCN(C2CCCC2)CC1 (stereo unspecified) , what is its reported cell number change?
Result: -10.2

* * *

experiment: qHTS Assay for Lipid Storage Modulators in Drosophila S3 Cells;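 as to cell number change: cells counted by Cell Tracker Red CMTPX staining in the red channel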
measurement-context: BODIPY lipid droplet fluorescence, 18-24 h, cells fed with added oleic acid; measured here: cell count max response
The campaign covered roughly 320,000 compounds. About 2,100 (0.66%) were called active. Roughly 53% stayed inconclusive and do not appear here. What follows is part of a selection rich in actives, with near analogues and random picks from the rest.
test-readout: cell number change (%)
Write the value in % as a bare number.

Query: Given the compound CCC(CC)C(=O)NCCc1ccc(F)cc1 , what is its reported cell number change?
Result: 0.621

Query: Given the compound O=C(COC(=O)c1ccccc1Nc1ccccc1)NCc1ccccc1Cl , what is its reported cell number change?
Result: -4.27

Query: Given the compound CC1CCN(c2ccccc2NC(=O)c2ccc([N+](=O)[O-])o2)CC1 , what is its reported cell number change?
Result: 8.97

Query: Given the compound Cc1onc(-c2ccccc2)c1C(=O)N/N=C/c1ccc(Br)cc1 , what is its reported cell number change?
Result: 8.96

Query: Given the compound COc1ccc(CC(=O)Nc2nc(-c3ccc(F)c(F)c3)cs2)cc1OC , what is its reported cell number change?
Result: 21

Query: Given the compound CSc1ccccc1OCc1cc(C(=O)N(C)Cc2cc(C)[nH]n2)no1 , what is its reported cell number change?
Result: -1.8

Query: Given the compound C=CCc1ccccc1OCCn1nnc2ccccc21 , what is its reported cell number change?
Result: -12.8

Query: Given the compound O=C(NCc1ccc(Cl)cc1)c1cc([N+](=O)[O-])ccc1Cl , what is its reported cell number change?
Result: 16.3

* * *

experiment: qHTS Assay for Lipid Storage Modulators in Drosophila S3 Cells;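 as to cell number change: cells counted by Cell Tracker Red CMTPX staining in the red channel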
measurement-context: BODIPY lipid droplet fluorescence, 18-24 h, cells fed with added oleic acid; measured here: cell count max response
Text: NIH Molecular Libraries Probe Production Centers Network [MLPCN] NIH Chemical Genomics Center [NCGC] […] Triacsin C (Sigma-Aldrich T-4540), an inhibitor of long-chain fatty acyl CoA synthetase that blocks synthesis of triglycerides, was used as a positive control for lipid under-storage. […] Fluorescence was detected by excitation of the fluorophores with a 488-nm laser on an Acumen Explorer (TTP Lab Tech). […] Cells were detected using channel 3 (575-640 nm) with 5-um width and 100-um depth filters. […]
In all, about 320,000 compounds went through this assay and about 2,100 (0.66%) were called active. Not shown: some 53% with an inconclusive outcome. Many of the other results were omitted from the sample, so actives are more common in it than they were.
test-readout: cell number change (%)
Write the value in % as a bare number.

Query: Given the molecule CC(=O)c1sc(NC(=O)c2cc(=O)c3ccccc3o2)nc1C , what is its reported cell number change?
Result: -11.4

Query: Given the molecule CCCCCN=CC1=C(O)CC(c2ccccc2)CC1=O (stereo not given) , what is its reported cell number change?
Result: -15.5

Query: Given the molecule COc1ccc(NS(=O)(=O)c2cccc(C(=O)N/N=C(\C)c3ccc(-n4ccnc4)cc3)c2)cc1 , what is its reported cell number change?
Result: 11.3

Query: Given the molecule CCCCOC(=O)c1ccc(Nc2ncnc3nc[nH]c23)cc1 , what is its reported cell number change?
Result: 2.99

Query: Given the molecule Cc1ccccc1C(=O)N1CCCC(N2CCN(Cc3ccc4c(c3)OCO4)CC2)C1 (stereo not given) , what is its reported cell number change?
Result: 0.496

Query: Given the molecule CCOC(=O)N1CCC(NC(=O)c2oc3c(F)cccc3c2C)CC1 , what is its reported cell number change?
Result: -4.45

Query: Given the molecule CCCN(CC1CC1)C(=O)COC(=O)c1[nH]c(C)c(C(=O)OCC)c1C , what is its reported cell number change?
Result: -17.3

Query: Given the molecule O=C(NNc1nc2c(F)cccc2s1)c1cc(=O)c2ccccc2o1 , what is its reported cell number change?
Result: -1.04

Query: Given the molecule CC(C(=O)Nc1cc(C(F)(F)F)ccc1N1CCOCC1)N1C(=O)C2CC=CCC2C1=O (stereo not given) , what is its reported cell number change?
Result: -1.98

Query: Given the molecule CCc1c(C)nc(N)n2c(SCC(=O)NC3CCCCC3)nnc12 , what is its reported cell number change?
Result: 19.2

* * *

experiment: qHTS Assay for Lipid Storage Modulators in Drosophila S3 Cells; also: potency is read from the fitted curve at half-maximal effect
measurement-context: BODIPY lipid droplet fluorescence, 18-24 h, cells fed with added oleic acid; series mostly up to 46.1 µM
Hit rate of the full screen: of about 320,000 compounds, about 2,100 (0.66%) were called active. Inconclusive results (about 53%) are left out. For the sample, actives were picked, then their nearest neighbours and some compounds at random.
test-readout: Potency

These solved cases illustrate the format of a correct answer.
1) Cc1ccccc1NC(=O)Cc1nnc(N)s1 ... inactive
2) CCCn1c(SCC(=O)NC2CC2)nnc1-c1cccs1 ... inactive
3) CN(/N=C/c1cc(Cl)ccc1O)C1=NS(=O)(=O)c2ccccc21 ... 3.66 µM (active)
4) CC(C)Cn1c(/C=N/Nc2nc3ccccc3[nH]2)nc2ccccc21 ... inactive
5) CN1C/C(=C/c2ccncc2)C(=O)/C(=C/c2ccncc2)C1 ... inactive

Query: Given the compound CN1C/C(=C\c2ccc(N3CCOCC3)cc2)C(=O)/C(=C/c2ccc(N3CCOCC3)cc2)C1 , what is its reported Potency?
Result: 7.31 µM (active)

Query: Given the compound CC(C)N1C/C(=C/c2cccnc2)C(=O)/C(=C/c2cccnc2)C1 , what is its reported Potency?
Result: 23.1 µM (active)

Query: Given the compound c1ccc(CCNc2nc3ccccc3n3nnnc23)cc1 , what is its reported Potency?
Result: inactive

Query: Given the compound O=C(CSc1ncnc2ccccc12)Nc1cccc(S(=O)(=O)N2CCOCC2)c1 , what is its reported Potency?
Result: inactive
